# assayedSystem: T1, human IL-1α (human, UniProt P01583 113-271)
# T1 construct: also called IL-1alpha; hIL-1α
# T1 sequence (looked up): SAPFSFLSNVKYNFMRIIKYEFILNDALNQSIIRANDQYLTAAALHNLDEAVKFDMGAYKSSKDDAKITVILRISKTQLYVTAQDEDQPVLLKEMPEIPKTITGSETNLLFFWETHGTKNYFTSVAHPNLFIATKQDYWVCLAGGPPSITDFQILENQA
# measurementProtocol: Table 62 IC50; RBA presumed
endpointName: IC50 (nM)
Give a bare numeral; the unit nM is implied.

binder | endpointName | resultNumber
ABT1-95-125 (other, VK dAb) VL: DIQMTQSPSSLSASVGDRVTITCRASQPIVRNLRWYQQKPGKAPKLLIYSSSYLEPGVPSRFSGSGSGTDFTLTISSLQPEDFATYHCQQGYRWPLTFGQGTKVEIKR | IC50 | 0.2
ABT1-95-132 (other, VK dAb) VL: DIQMTQSPSSLSASVGDRVTITCRASQPIVRNLRWYQQKPGIAPKLLIYSSSYLEPGVPSRFSGSGSGTDFTLTISSPQPEDFATYHCQQGYRWPVTFGQGTKVEIKR | IC50 | 0.1
ABT1-95-110 (other, VK dAb) VL: DIQMTQSPSSLSASVGDRVTITCRASQPIVRNLRWYQQKPGKAPKLLIYSSSYLEAGVPSRFSGSGSGTDFTLTISSLQPEDFATYHCQQGYRWPVTFGQGTKVEIKR | IC50 | 0.1

Qu. Dear colleague, I am looking for the recorded IC50 of the following binder: ABT1-95-75 (other, VK dAb) VL: DIQMTQSPSSLSASVGDRVTITCRASQPIVRNLRWYQQKPGKAPKLLIYSASYLEPGVPSRFSGSGSGTDFTLTISSLQPEDFATYHCQQGYRWPVTFGQGTKVEIKR
Ans. 0.3

Qu. Would you mind telling me what IC50 value was observed for ABT1-95-140 (other, VK dAb) VL: DIQMTQSPSSLSASVGDRVTITCRASQGIVRNLRWYQQKPGKAPKLLIYSSSYLEPGVPSRFSGSGSGTDFTLTISSLQPEDFATYHCQQGYRWPVTFGQGTKVEIKR ?
Ans. 0.2

Qu. Sample ABT1-95-151 (other, VK dAb) VL: DIQMTQSPSSLSASVGDRVTITCRAGQPIVRNLRWYQQKPGKAPKLLIYSSSYLEPGVPSRFSGSGSGTDFTLTISSLQPEDFATYHCQQGYRWPVTFDQGTKVEIKR — what was its IC50?
Ans. 0.2
